test: Beagle dog PK study 2 of Example 101 (HPβCD based formulation, IV), with clinical observations; assay type: in vivo; conditions: beagle, dog, plasma, iv, 1 mg/kg, dog PK study 2, IV 1 mg/kg, HPβCD, 0.5 h, Test Animal 3; read-out: Plasma concentration
parameter_measured: concentration at 0.5 h (ng/mL)
All answers are understood in ng/mL, so give the number only.

Exercise: Item CNC(=O)c1[nH]c(C(=O)NC2CCC2)cc1O[C@@H](C)c1ccccc1 (stereo in doubt) has what recorded concentration at 0.5 h?
Solution: 702

* * *

For each record, write down the corresponding IC50.
target: BRD4 BD2 (Homo sapiens (Human), UniProt O60885); experiment: NanoBRET bromodomain assay, NanoLuc-BRD4-BD2 fusion in HEK293 cells; conditions: BRD4 BD2 (IC50), NanoBRET, HEK293 cells, top concentration 10 μM;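 further: tracer displacement BRET read in transfected cells after 2 h compound exposure at 37 °C, signal in milliBRET units corrected against no-tracer background wells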

Exercise: Give its IC50 value. Item: CNC(=O)c1[nH]c(C(=O)N[C@H]2CC[C@H](O)CC2)cc1OC(C)c1ccc(Cl)cc1F (single isomer, unassigned) [Example 38]
Solution: 50 to 200 nM

Exercise: And CNC(=O)c1[nH]c(NC(C)=O)cc1O[C@@H](C)c1ccccc1F ?
Solution: 50 to 200 nM

Exercise: Another compound: CCNC(=O)c1[nH]c(C(=O)NC)c(O[C@@H](C)c2ccccc2F)c1Br
Solution: > 10000 nM

Exercise: Next record, please: CNC(=O)c1[nH]c(-c2cc(C)nn2C)cc1O[C@@H](C)c1ccccc1
Solution: 50 to 200 nM

* * *

test: Intrinsic clearance in liver microsomes, rat; assay type: in vitro ADME; settings: rat, liver microsomes, pH 7.4, rat liver microsomes, Method 2; read-out: Half-Life (T1/2) (min), Rat
Please go through the items and note down their half-life at 1 μM.

Exercise: // lookup half-life at 1 μM for CNC(=O)c1[nH]c(C(=O)NC(C)C)cc1O[C@@H](C)c1ccc(Cl)cc1 [Example 61]
Solution: > 60 min

Exercise: Another compound to look at: CNC(=O)c1[nH]c(C(=O)N[C@H]2CC[C@H](O)CC2)cc1OC(C)c1ccccc1F (single isomer, unassigned) [Example 45]
Solution: > 60 min

Exercise: Next entry: CNC(=O)c1[nH]c(C(=O)NC2COC2)cc1OC(C)c1ccccc1F (single isomer, unassigned) [Example 47]
Solution: > 60 min

Exercise: Moving on to CNC(=O)c1[nH]c(C(=O)NCC(F)(F)F)cc1O[C@@H](C)c1ccccc1 [Example 54]
Solution: > 60 min

Exercise: Another: CNC(=O)c1[nH]c(-c2ncc(C)[nH]2)cc1O[C@@H](C)c1ccccc1F [Example 68]
Solution: 23 min

Exercise: Request: CCNC(=O)c1cc(OC(C)c2ccc(I)cc2)c(C(=O)NC)[nH]1 (single isomer, unassigned) [Example 51]
Solution: > 60 min

Exercise: Next up: CCNC(=O)c1[nH]c(C(=O)NC)c(O[C@@H](C)c2ccccc2F)c1Br [Example 72]
Solution: 13 min

Exercise: CNC(=O)c1[nH]c(-c2ncc(C)[nH]2)cc1O[C@@H](C)c1ccc(Cl)cc1 [Example 69] ?
Solution: 21 min

* * *

experiment: Beagle dog PK study 2 of Example 101 (HPβCD based formulation, IV), with clinical observations; assay type: in vivo; conditions: beagle, dog, plasma, iv, 1 mg/kg, dog PK study 2, IV 1 mg/kg, HPβCD, 1 h, mean; read-out: Average plasma concentration, Mean
parameter_measured: concentration at 1 h (ng/mL)
Response body: numeric value in ng/mL, unit text excluded.

Exercise: Report concentration at 1 h for CNC(=O)c1[nH]c(C(=O)NC2CCC2)cc1O[C@@H](C)c1ccccc1 (stereo in doubt) [Example 101] please.
Solution: 216
